experiment: Stability of MTI-101 in plasma (rat); format: in vitro ADME; settings: 4 degrees Celsius, read-out: Stability - 24 Hour 4 Degrees Celsius
Numbered stars: 1 amine (or outer) side, 2 acyl side, 3 side chain; on linkers, the order of the positions; unused ones are H or OH. Bridge positions count the residues as written; N and C are the ends. Square brackets hold non-standard residues; d marks the D form. Peptide text beside a SMILES is read from it. * marks the point of attachment. dProlinol(O-CH2CO) = O=C(COC[C@H]1CCCN1[*:1])[*:2]; N(2-Aminoethyl)Gly = O=C(CN(CCN[*:3])[*:1])[*:2]; Nle = CCCC[C@H](N)C(=O)O; Ms = CS(=O)(=O)*

Compound: CCCC[C@@H]1NC(=O)CN(S(C)(=O)=O)CCNC(=O)[C@H](CCCCN)NC(=O)[C@H](CC(C)C)NC(=O)[C@H](CCCCN)NC(=O)[C@H](CC(C)C)NC(=O)[C@H](CCCCN)NC(=O)COC[C@H]2CCCN2C(=O)[C@H](Cc2c[nH]c3ccccc23)NC(=O)[C@H](C)NC(=O)[C@H](C(C)C)NC(=O)[C@H](C(C)C)NC1=O [MTI-101] (Ms-[N(2-Aminoethyl)Gly][Nle]VVAW[dProlinol(O-CH2CO)]KLKLK; lactam 1-C)
remaining at 24 h (%): 94

---

assay: Stability of MTI-101 in plasma (dog); assay type: in vitro ADME; settings: 4 degrees Celsius, read-out: Stability - 24 Hour 4 Degrees Celsius
Numbered stars: 1 amine (or outer) side, 2 acyl side, 3 side chain; on linkers, the order of the positions; unused ones are H or OH. Bridge positions count the residues as written; N and C are the ends. Square brackets hold non-standard residues; d marks the D form. Peptide text beside a SMILES is read from it. * marks the point of attachment. dProlinol(O-CH2CO) = O=C(COC[C@H]1CCCN1[*:1])[*:2]; N(2-Aminoethyl)Gly = O=C(CN(CCN[*:3])[*:1])[*:2]; Nle = CCCC[C@H](N)C(=O)O; Ms = CS(=O)(=O)*
Result type: remaining at 24 h (%)

Compound: CCCC[C@@H]1NC(=O)CN(S(C)(=O)=O)CCNC(=O)[C@H](CCCCN)NC(=O)[C@H](CC(C)C)NC(=O)[C@H](CCCCN)NC(=O)[C@H](CC(C)C)NC(=O)[C@H](CCCCN)NC(=O)COC[C@H]2CCCN2C(=O)[C@H](Cc2c[nH]c3ccccc23)NC(=O)[C@H](C)NC(=O)[C@H](C(C)C)NC(=O)[C@H](C(C)C)NC1=O [MTI-101] (Ms-[N(2-Aminoethyl)Gly][Nle]VVAW[dProlinol(O-CH2CO)]KLKLK; lactam 1-C)
Observed result: 83

---

assay: Stability of MTI-101 in plasma (rat); type: in vitro ADME; settings: room temperature, read-out: Stability - 24 Hour Room Temperature
Numbered stars: 1 amine (or outer) side, 2 acyl side, 3 side chain; on linkers, the order of the positions; unused ones are H or OH. Bridge positions count the residues as written; N and C are the ends. Square brackets hold non-standard residues; d marks the D form. Peptide text beside a SMILES is read from it. * marks the point of attachment. dProlinol(O-CH2CO) = O=C(COC[C@H]1CCCN1[*:1])[*:2]; N(2-Aminoethyl)Gly = O=C(CN(CCN[*:3])[*:1])[*:2]; Nle = CCCC[C@H](N)C(=O)O; Ms = CS(=O)(=O)*

Compound: CCCC[C@@H]1NC(=O)CN(S(C)(=O)=O)CCNC(=O)[C@H](CCCCN)NC(=O)[C@H](CC(C)C)NC(=O)[C@H](CCCCN)NC(=O)[C@H](CC(C)C)NC(=O)[C@H](CCCCN)NC(=O)COC[C@H]2CCCN2C(=O)[C@H](Cc2c[nH]c3ccccc23)NC(=O)[C@H](C)NC(=O)[C@H](C(C)C)NC(=O)[C@H](C(C)C)NC1=O [MTI-101] (Ms-[N(2-Aminoethyl)Gly][Nle]VVAW[dProlinol(O-CH2CO)]KLKLK; lactam 1-C)
remaining at 24 h: 90%

---

experiment: Stability of MTI-101 in plasma (mouse); format: in vitro ADME; conditions: room temperature
Numbered stars: 1 amine (or outer) side, 2 acyl side, 3 side chain; on linkers, the order of the positions; unused ones are H or OH. Bridge positions count the residues as written; N and C are the ends. Square brackets hold non-standard residues; d marks the D form. Peptide text beside a SMILES is read from it. * marks the point of attachment. dProlinol(O-CH2CO) = O=C(COC[C@H]1CCCN1[*:1])[*:2]; N(2-Aminoethyl)Gly = O=C(CN(CCN[*:3])[*:1])[*:2]; Nle = CCCC[C@H](N)C(=O)O; Ms = CS(=O)(=O)*

Compound: CCCC[C@@H]1NC(=O)CN(S(C)(=O)=O)CCNC(=O)[C@H](CCCCN)NC(=O)[C@H](CC(C)C)NC(=O)[C@H](CCCCN)NC(=O)[C@H](CC(C)C)NC(=O)[C@H](CCCCN)NC(=O)COC[C@H]2CCCN2C(=O)[C@H](Cc2c[nH]c3ccccc23)NC(=O)[C@H](C)NC(=O)[C@H](C(C)C)NC(=O)[C@H](C(C)C)NC1=O [MTI-101] (Ms-[N(2-Aminoethyl)Gly][Nle]VVAW[dProlinol(O-CH2CO)]KLKLK; lactam 1-C)
remaining at 24 h, %: 85

Reference for the values: patent US20140322227A1
